molecular target: Elastase (Sus scrofa); construct: purchased Sigma-Aldrich; assay: Elastase inhibition, fluorogenic substrate assay (MeOSuc-Ala-Ala-Pro-Val-AMC); assay type: biochemical, Sus domesticus; conditions: Elastase; inhibitor concentration 1000 nM; 40 min pre-incubation
Sequence (P00772 27-266): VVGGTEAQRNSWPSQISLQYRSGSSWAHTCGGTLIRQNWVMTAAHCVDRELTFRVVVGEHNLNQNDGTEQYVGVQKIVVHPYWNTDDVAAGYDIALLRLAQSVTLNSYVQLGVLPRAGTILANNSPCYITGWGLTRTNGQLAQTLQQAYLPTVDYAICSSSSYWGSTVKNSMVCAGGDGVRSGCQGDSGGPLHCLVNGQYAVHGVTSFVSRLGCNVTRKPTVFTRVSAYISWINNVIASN
Readout: Mean (RFU/s)
Use RFU/s as the unit, but write only the number.

Req: Look up and report measured Mean (RFU/s) (Elastase (Sus scrofa)) for the following molecule: C/C=C1\NC(=O)[C@@H](NC(=O)[C@@H](NC(=O)[C@H](C)NC(=O)CCC)[C@@H](C)O)[C@@H](C)OC(=O)[C@H](C(C)C)NC(=O)[C@H](Cc2ccc(O)cc2)N(C)C(=O)[C@H](Cc2ccccc2)N2C(=O)[C@H](CC[C@H]2O)NC1=O [Molassamide, molassamide]
Resp: 0

Req: Look up and report measured Mean (RFU/s) (Elastase (Sus scrofa)) for the following molecule: CC=C1NC(=O)[C@@H](NC(=O)[C@@H](NC(=O)[C@@H]2CCCN2C(=O)CCC)[C@@H](C)O)[C@@H](C)OC(=O)[C@H](C(C)C)NC(=O)[C@H](Cc2ccc(O)cc2)N(C)C(=O)[C@H](Cc2ccccc2)N2C(=O)[C@H](CC[C@H]2O)NC1=O [Rivulariapeptolide 988, rivulariapeptolide 988]
Resp: 0

Req: Look up and report measured Mean (RFU/s) (Elastase (Sus scrofa)) for the following molecule: C/C=C1\NC(=O)[C@@H](NC(=O)[C@@H](NC(=O)[C@H](C)NC(=O)CCC)[C@@H](C)O)[C@@H](C)OC(=O)[C@H](C(C)C)NC(=O)[C@H](Cc2ccc(O)c(Br)c2)N(C)C(=O)[C@H](Cc2ccccc2)N2C(=O)[C@H](CC[C@H]2O)NC1=O [Molassamide B, molassamide B]
Resp: 0

====

biological target: Chymotrypsin (Bos taurus); construct: purchased Sigma-Aldrich; experiment: Chymotrypsin inhibition, fluorogenic substrate assay (Suc-Ala-Ala-Pro-Phe-AMC); type: biochemical; conditions: Chymotrypsin; inhibitor concentration 4.11523 nM; 40 min pre-incubation
Label Met for high-side Mean (RFU/s) (at or above 5 RFU/s) and Not met for low-side Mean (RFU/s) (below it).

Req: Decide: Mean (RFU/s) of C/C=C1\NC(=O)[C@@H](NC(=O)[C@@H](NC(=O)[C@H](C)NC(=O)CCC)[C@@H](C)O)[C@@H](C)OC(=O)[C@H](C(C)C)NC(=O)[C@H](Cc2ccc(O)cc2)N(C)C(=O)[C@H](Cc2ccccc2)N2C(=O)[C@H](CC[C@H]2O)NC1=O [Molassamide, molassamide] >= 5 RFU/s?
Resp: Met

Req: Decide: Mean (RFU/s) of CCCC(=O)N1CCCC1C(=O)NC(C(=O)NC1C(=O)NC(CC(C)C)C(=O)NC2CCC(O)N(C2=O)C(Cc2ccccc2)C(=O)N(C)C(Cc2ccc(O)cc2)C(=O)NC(C(C)C)C(=O)OC1C)C(C)OC(=O)C1CCCN1C(=O)CCC (stereo not drawn) [Rivulariapeptolide 1185, rivulariapeptolide 1185] >= 5 RFU/s?
Resp: Not met

Req: Decide: Mean (RFU/s) of C/C=C1\NC(=O)[C@@H](NC(=O)[C@@H](NC(=O)[C@H](C)NC(=O)CCC)[C@@H](C)O)[C@@H](C)OC(=O)[C@H](C(C)C)NC(=O)[C@H](Cc2ccc(O)c(Br)c2)N(C)C(=O)[C@H](Cc2ccccc2)N2C(=O)[C@H](CC[C@H]2O)NC1=O [Molassamide B, molassamide B] >= 5 RFU/s?
Resp: Not met

Req: Decide: Mean (RFU/s) of CC=C1NC(=O)[C@@H](NC(=O)[C@@H](NC(=O)[C@@H]2CCCN2C(=O)CCC)[C@@H](C)O)[C@@H](C)OC(=O)[C@H](C(C)C)NC(=O)[C@H](Cc2ccc(O)cc2)N(C)C(=O)[C@H](Cc2ccccc2)N2C(=O)[C@H](CC[C@H]2O)NC1=O [Rivulariapeptolide 988, rivulariapeptolide 988] >= 5 RFU/s?
Resp: Not met

Req: Decide: Mean (RFU/s) of CC=C1NC(=O)[C@@H](NC(=O)[C@@H](NC(=O)[C@@H]2CCCN2C(=O)CCC)[C@@H](C)OC(=O)C2CCCN2C(=O)CCC)[C@@H](C)OC(=O)[C@H](C(C)C)NC(=O)[C@H](Cc2ccc(O)cc2)N(C)C(=O)[C@H](CC(C)C)N2C(=O)[C@H](CC[C@H]2O)NC1=O (stereo partly drawn) [Rivulariapeptolide 1121, rivulariapeptolide 1121] >= 5 RFU/s?
Resp: Not met
